Target: GABA-A receptor; alpha-1/beta-2/gamma-2 (Homo sapiens, UniProt P14867+P18507+P47870)
Assay: Displacement of [3H]flunitrazepam from human recombinant alpha1beta2gamma2 GABAA receptor expressed in HEK cell membrane by competitive radioligand binding assay
pKi: −log10 of the molar value.
Use y when the recorded pKi is no lower than 7; use n when it is lower.

> print(dat)
                             line.notation                           target.of.assay  group.label
1  Cc1nnc2n1-c1ccc(Br)cc1C(c1ccccc1Cl)=NC2  GABA-A receptor; alpha-1/beta-2/gamma-2 (Homo sapiens, UniProt P14867+P18507+P47870)            y
2             O=C1CN=C(c2ccccc2)c2ccccc2N1  GABA-A receptor; alpha-1/beta-2/gamma-2 (Homo sapiens, UniProt P14867+P18507+P47870)            n
3       O=C1CN=C(c2ccccc2Cl)c2cc(Br)ccc2N1  GABA-A receptor; alpha-1/beta-2/gamma-2 (Homo sapiens, UniProt P14867+P18507+P47870)            y
4    Cc1nnc2n1-c1ccc(Br)cc1C(c1ccccn1)=NC2  GABA-A receptor; alpha-1/beta-2/gamma-2 (Homo sapiens, UniProt P14867+P18507+P47870)            y
